Answer each item with its documented Ki.
system name: human NK3 receptor (Homo sapiens, UniProt P29371)
Sequence (P29371 whole entry): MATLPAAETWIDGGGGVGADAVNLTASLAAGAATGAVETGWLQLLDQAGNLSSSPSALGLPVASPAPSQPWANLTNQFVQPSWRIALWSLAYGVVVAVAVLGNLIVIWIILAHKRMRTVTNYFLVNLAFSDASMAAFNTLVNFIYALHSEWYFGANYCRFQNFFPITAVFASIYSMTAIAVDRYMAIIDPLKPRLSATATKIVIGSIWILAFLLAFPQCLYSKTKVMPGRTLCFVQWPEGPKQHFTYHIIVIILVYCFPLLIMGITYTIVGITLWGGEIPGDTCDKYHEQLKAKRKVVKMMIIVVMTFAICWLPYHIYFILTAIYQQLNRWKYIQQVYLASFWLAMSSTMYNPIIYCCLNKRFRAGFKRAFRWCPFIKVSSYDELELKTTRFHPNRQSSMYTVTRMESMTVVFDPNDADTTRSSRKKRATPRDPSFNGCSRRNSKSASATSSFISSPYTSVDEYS
experimental details: Binding potency of the test substances to NK3-receptors in vitro ([3H]-SR 142801 displacement)
Design: expressed in transfected cells; host or cells: CHO cells (membrane preparation)
measurement conditions: human NK3-receptor in CHO cell membranes, [3H]-SR 142801 (osanetant); average of at least three measurements; read-out: pKi, binding potency to NK3-receptors (converted)

Looking up CN(C)C(=O)C1(N2CCCCC2)CCN(CCC(CN(C)C(=O)c2ccccn2)c2ccc(Cl)c(Cl)c2)CC1 (stereo not shown) [compound 43] , I see its Ki listed as 5.01 nM

Looking up CN(C)C(=O)C1(N2CCCCC2)CCN(CCC(CN(C)C(=O)c2ccoc2)c2ccc(Cl)c(Cl)c2)CC1 (stereo not shown) [compound 36] , I see its Ki listed as 5.01 nM

Looking up CN(C)C(=O)C1(N2CCCCC2)CCN(CCC(CN(C)C(=O)c2ccc(NC(=O)OC(C)(C)C)cc2)c2ccc(Cl)c(Cl)c2)CC1 (stereo not shown) [compound 54] , I see its Ki listed as 6.31 nM

Looking up CN(C)C(=O)C1(N2CCCCC2)CCN(CCC(CN(C)C(=O)c2cc[nH]c2)c2ccc(Cl)c(Cl)c2)CC1 (stereo not shown) [compound 64] , I see its Ki listed as 79.4 nM

Looking up CN(C)C(=O)C1(N2CCCCC2)CCN(CCC(CN(C)C(=O)c2ccc(C#N)cc2)c2ccc(Cl)c(Cl)c2)CC1 (stereo not shown) [compound 91] , I see its Ki listed as 15.8 nM

Looking up Cc1c(C(=O)N(C)CC(CCN2CCC(C(=O)N(C)C)(N3CCCCC3)CC2)c2ccc(Cl)c(Cl)c2)nnn1Cc1ccccc1 (stereo not shown) [compound 67] , I see its Ki listed as 5.01 nM

Looking up COc1cccc(C(=O)N(C)CC(CCN2CCC(C(=O)N(C)C)(N3CCCCC3)CC2)c2ccc(Cl)c(Cl)c2)c1 (stereo not shown) [compound 82] , I see its Ki listed as 25.1 nM

----------
system name: human NK2-receptor (Homo sapiens, UniProt P21452)
experimental details: Functional cellular test, Ca2+ measurements using FLIPR for NK2 activity;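 also: CHO cells stably expressing the human receptor, loaded with a calcium dye, antagonist inhibition of ligand-evoked intracellular calcium rise read as peak fluorescence change on FLIPR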
measurement conditions: CHO cells, human NK2, FLIPR Ca2+, agonist NKA 10^-7 M
endpoint: pA2 data for NK2

Looking up CN(C)C(=O)C1(N2CCCCC2)CCN(CC[C@H](CN(C)C(=O)C2CCCCC2)c2ccc(Cl)c(Cl)c2)CC1 , I see its pA2 data for NK2 listed as 8.7

Looking up CN(C)C(=O)C1(N2CCCCC2)CCN(CC[C@H](CN(C)C(=O)c2ccc(F)cc2F)c2ccc(Cl)c(Cl)c2)CC1 , I see its pA2 data for NK2 listed as 8.3

Looking up CN(C)C(=O)C1(N2CCCCC2)CCN(CC[C@H](CN(C)C(=O)c2cc(C#N)c3ccccc3c2)c2ccc(Cl)c(Cl)c2)CC1 , I see its pA2 data for NK2 listed as 8.4

Looking up CN(C)C(=O)C1(N2CCCCC2)CCN(CC[C@H](CN(C)C(=O)c2cc(F)cc(F)c2)c2ccc(Cl)c(Cl)c2)CC1 , I see its pA2 data for NK2 listed as 8.6

Looking up CN(C)C(=O)C1(N2CCCCC2)CCN(CC[C@H](CN(C)C(=O)c2ccccc2O)c2ccc(Cl)c(Cl)c2)CC1 , I see its pA2 data for NK2 listed as 8.3

Looking up CN(C)C(=O)C1(N2CCCCC2)CCN(CC[C@H](CN(C)C(=O)c2ccc(F)c(F)c2F)c2ccc(Cl)c(Cl)c2)CC1 , I see its pA2 data for NK2 listed as 8.3

Looking up CN(C)C(=O)C1(N2CCCCC2)CCN(CC[C@H](CN(C)C(=O)c2cc(F)ccc2F)c2ccc(Cl)c(Cl)c2)CC1 , I see its pA2 data for NK2 listed as 8.3

----------
system name: human NK2-receptor (Homo sapiens, UniProt P21452)
Sequence (P21452 1-398): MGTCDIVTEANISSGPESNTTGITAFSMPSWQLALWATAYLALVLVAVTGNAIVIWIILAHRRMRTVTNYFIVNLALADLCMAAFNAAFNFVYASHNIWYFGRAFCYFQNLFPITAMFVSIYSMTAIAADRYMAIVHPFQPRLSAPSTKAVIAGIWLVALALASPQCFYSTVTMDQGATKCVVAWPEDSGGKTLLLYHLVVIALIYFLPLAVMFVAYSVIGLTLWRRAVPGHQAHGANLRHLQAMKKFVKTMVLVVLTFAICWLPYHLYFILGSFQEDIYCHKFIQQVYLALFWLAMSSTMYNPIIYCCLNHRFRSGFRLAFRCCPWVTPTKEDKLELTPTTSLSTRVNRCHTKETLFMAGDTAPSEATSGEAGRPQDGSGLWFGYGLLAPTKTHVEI
experimental details: Binding potency of the test substances to NK2-receptors in vitro ([3H]-SR 48968 displacement)
Design: expressed in transfected cells; host or cells: CHO cells (membrane preparation)
measurement conditions: human NK2-receptor in CHO cell membranes, [3H]-SR 48968 (saredutant); average of at least three measurements; read-out: pKi, binding potency to NK2-receptors (converted)
Method: 2. Determination of the Binding Potency of the Test Substances to NK2-Receptors in Vitro The affinity of test compounds for NK2-receptors can be determined by measuring the ability of the test compound to displace a radiolabeled ligand from its specific binding site. The radiolabel used in this assay is [^3H]-SR 48968 (saredutant). […] Bound radioactivity was measured with a liquid scintillation counter (total binding). […]
Binary label based on Ki with cut-off 2 nM: below gives yes (1), not below gives no (0).

In the record for CN(C)C(=O)C1(N2CCCCC2)CCN(CCC(CN(C)C(=O)c2c(F)cccc2F)c2ccc(Cl)c(Cl)c2)CC1 (stereo not shown) [compound 74] , is Ki less than 2 nM? no (0)

In the record for CN(C)C(=O)C1(N2CCCCC2)CCN(CCC(CN(C)C(=O)Cc2ccccn2)c2ccc(Cl)c(Cl)c2)CC1 (stereo not shown) [compound 49] , is Ki less than 2 nM? no (0)

In the record for CN(C)C(=O)C1(N2CCCCC2)CCN(CCC(CN(C)C(=O)C2CC2)c2ccc(Cl)c(Cl)c2)CC1 (stereo not shown) [compound 22] , is Ki less than 2 nM? no (0)

In the record for CN(C)C(=O)C1(N2CCCCC2)CCN(CCC(CN(C)C(=O)c2ccc(OC(F)(F)F)cc2)c2ccc(Cl)c(Cl)c2)CC1 (stereo not shown) [compound 55] , is Ki less than 2 nM? no (0)

In the record for Cc1ccccc1C(=O)N(C)CC(CCN1CCC(C(=O)N(C)C)(N2CCCCC2)CC1)c1ccc(Cl)c(Cl)c1 (stereo not shown) [compound 78] , is Ki less than 2 nM? yes (1)

----------
Answer each item with its documented ED50 iv after 1 min (cumulative), NK2 (colonic motility).
system name: NK2-receptor (Cavia porcellus, UniProt Q64077)
Construct: from tissue; host or cells: whole animal (Pirbright-White guinea pigs), in vivo
Sequence (Q64077 whole entry): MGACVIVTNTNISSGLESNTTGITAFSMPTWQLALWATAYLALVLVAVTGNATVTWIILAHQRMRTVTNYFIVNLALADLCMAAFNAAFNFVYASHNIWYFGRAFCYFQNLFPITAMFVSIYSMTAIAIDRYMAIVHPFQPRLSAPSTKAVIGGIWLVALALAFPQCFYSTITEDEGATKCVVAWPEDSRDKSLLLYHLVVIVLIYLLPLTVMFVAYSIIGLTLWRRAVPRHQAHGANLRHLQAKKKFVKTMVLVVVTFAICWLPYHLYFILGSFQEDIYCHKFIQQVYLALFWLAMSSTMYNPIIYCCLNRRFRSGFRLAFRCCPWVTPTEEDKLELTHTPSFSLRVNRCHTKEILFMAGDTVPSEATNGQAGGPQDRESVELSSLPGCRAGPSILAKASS
experimental details: NK2-receptor-antagonistic effectiveness in vivo, NKA-induced late hypotension, bronchoconstriction and colonic pressure in anaesthetised guinea pigs
measurement conditions: guinea pig, NKA 200 pmol/animal i.v., intravenous administration

Looking up CN(C)C(=O)C1(N2CCCCC2)CCN(CC[C@H](CN(C)C(=O)c2cc(C#N)c3ccccc3c2)c2ccc(Cl)c(Cl)c2)CC1 [compound 11] , I see its ED50 iv after 1 min (cumulative), NK2 (colonic motility) listed as 0.085 µmol/kg

Looking up CN(C)C(=O)C1(N2CCCCC2)CCN(CC[C@H](CN(C)C(=O)C2CCCCC2)c2ccc(Cl)c(Cl)c2)CC1 [compound 3] , I see its ED50 iv after 1 min (cumulative), NK2 (colonic motility) listed as 0.07 µmol/kg

Looking up CN(C)C(=O)C1(N2CCCCC2)CCN(CC[C@H](CN(C)C(=O)c2ccc(F)c(F)c2F)c2ccc(Cl)c(Cl)c2)CC1 [compound 16] , I see its ED50 iv after 1 min (cumulative), NK2 (colonic motility) listed as 0.132 µmol/kg

Looking up CN(C)C(=O)C1(N2CCCCC2)CCN(CC[C@H](CN(C)C(=O)c2cc(F)ccc2F)c2ccc(Cl)c(Cl)c2)CC1 [compound 15] , I see its ED50 iv after 1 min (cumulative), NK2 (colonic motility) listed as 0.066 µmol/kg

----------
system name: NK2-receptor (Cavia porcellus)
Construct: from tissue; host or cells: whole animal (Pirbright-White guinea pigs), in vivo
experimental details: NK2-receptor-antagonistic effectiveness in vivo, NKA-induced late hypotension, bronchoconstriction and colonic pressure in anaesthetised guinea pigs
measurement conditions: guinea pig, oral administration
endpoint: oral activity on the NK2, in words

CN(C)C(=O)C1(N2CCCCC2)CCN(CC[C@H](CN(C)C(=O)c2ccc(F)cc2)c2ccc(Cl)c(Cl)c2)CC1 [compound 4] : active orally on the NK2
CN(C)C(=O)C1(N2CCCCC2)CCN(CC[C@H](CN(C)C(=O)c2ccccc2)c2ccc(Cl)c(Cl)c2)CC1 [compound 1] : active orally on the NK2
CN(C)C(=O)C1(N2CCCCC2)CCN(CC[C@H](CN(C)C(=O)c2ccc(F)c(Cl)c2)c2ccc(Cl)c(Cl)c2)CC1 [compound 8] : active orally on the NK2
CN(C)C(=O)C1(N2CCCCC2)CCN(CC[C@H](CN(C)C(=O)c2cc(C#N)c3ccccc3c2)c2ccc(Cl)c(Cl)c2)CC1 [compound 11] : active orally on the NK2

Source: patent US20070219214A1
